molecular target: c-Cbl (Homo sapiens (Human), UniProt P22681); test: C-Cbl LCK Ub TR-FRET assay (c-cbl Lck HTRF); type: biochemical
Sequence (P22681 47-435): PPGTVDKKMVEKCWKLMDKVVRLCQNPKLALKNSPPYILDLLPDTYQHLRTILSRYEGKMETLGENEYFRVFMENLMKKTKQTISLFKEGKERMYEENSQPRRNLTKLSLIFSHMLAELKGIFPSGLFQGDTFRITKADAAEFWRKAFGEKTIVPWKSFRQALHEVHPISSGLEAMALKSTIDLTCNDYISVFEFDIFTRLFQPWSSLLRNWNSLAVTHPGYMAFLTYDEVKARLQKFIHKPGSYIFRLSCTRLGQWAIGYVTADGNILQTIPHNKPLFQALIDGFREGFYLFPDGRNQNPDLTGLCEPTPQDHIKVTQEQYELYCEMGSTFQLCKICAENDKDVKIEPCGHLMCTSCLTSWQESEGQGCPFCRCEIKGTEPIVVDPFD
pIC50: −log10 of the molar value.
Cut-off 7 on pIC50, inclusive. At or above means TRUE; below means FALSE.

| record-smiles | class-assignment |
| --- | --- |
| CC(C)[C@H]1CN(Cc2cc3c(c(C(F)(F)F)c2)CN(c2cccc(C4(Cc5nncn5C)CC(F)(F)C4)c2)C3=O)CCN1 | TRUE |

Dear colleague, could you confirm whether CC(C)N(C)Cc1cc2c(c(C(F)(F)F)c1)CN(c1cccc(C3([C@H](F)c4nncn4C)CC(F)(F)C3)c1)C2=O has pIC50 at or above 7? FALSE

Is pIC50 at least 7? Consider Cn1cnnc1C[C@]1(c2cccc(N3Cc4c(cccc4C(F)(F)F)C3=O)c2)C[C@H](F)C1 FALSE

Say whether C[C@H](NC1(C)CCC1)c1cc2c(c(C(F)(F)F)c1)CN(c1cccc(C3(Cc4nncn4C)CC(F)(F)C3)c1)C2=O shows pIC50 of 7 or more. TRUE
